Source: patent US20110098296A1

- System: SK-MEL-28 tumor cells
- Protocol Details: Method C: Cell Growth Inhibition Assay (CellTiter-Glo), SK-MEL-28
- Type: cell-based
- Reported Conditions: Homo sapiens, SK-MEL-28, 72 h, 3 days, 4-parameter fit
pIC50: −log10 of the molar value. Counter-ions that a name gives are not always drawn.
Assay Metric: pIC50

CCNc1nc(-c2cccc(NC(=O)c3c(F)cccc3F)c2)c(-c2ccnc(Nc3ccc(CCN4CCCC4)c(F)c3)n2)s1 [Example 26, trifluoroacetate]; 6.00 to 7.00
CC(=O)Nc1nc(-c2cccc(NC(=O)c3c(F)cccc3F)c2)c(-c2ccnc(Nc3cccc(CN4CCCC4)c3)n2)s1; 6.00 to 7.00
CN(C)CCOc1ccc(Nc2nccc(-c3sc(N)nc3-c3cccc(NC(=O)c4cc(F)ccc4F)c3)n2)cc1Cl; < 6.00

* * *

Listing: IC50 of selected molecules
- Target Desc: ErbB2 (Homo sapiens)
- Construct: made in house; host or cells: baculovirus expression system
- Protocol Details: ErbB-2 substrate phosphorylation assay (HTRF)
- Assay type: biochemical
- Reported Conditions: Method (A): Enzyme Mix incubated with compound at 20° C. for 1 hr, reaction started by adding Substrate Mix
Where a name gives a salt, the structure may show the parent alone.
Assay Metric: IC50

CN(C)CCCNc1ccc(Nc2nccc(-c3sc(N)nc3-c3cccc(NC(=O)C4CCCCC4)c3)n2)cc1F [Example 60]; < 100 nM
Cc1nc(-c2cccc(NC(=O)c3c(F)cccc3F)c2)c(-c2ccnc(Nc3ccc(OCCN(C)C)c(F)c3)n2)s1 [Example 105]; < 100 nM
COCCOc1ccc(Nc2nccc(-c3sc(N)nc3-c3cccc(NC(=O)c4cc(F)ccc4F)c3)n2)cc1F [Example 58]; < 100 nM
COc1ccc(Nc2nccc(-c3sc(N)nc3-c3cccc(NC(=O)c4c(F)cccc4F)c3)n2)cc1N1CCN(C)CC1 [Example 11, trifluoroacetate]; < 100 nM
CN(C)c1nc(-c2cccc(NC(=O)c3c(F)cccc3F)c2)c(-c2ccnc(Nc3cccc(CN4CCCC4)c3)n2)s1 [Example 39]; < 100 nM

* * *

Quick reference for IC50 among some molecules
- Tested on: HN5 tumor cells
- Protocol Details: Method C: Cell Growth Inhibition Assay (CellTiter-Glo), HN5
- Type: cell-based
- Reported Conditions: Homo sapiens, 72 h, 3 days, 4-parameter fit
Assay Metric: IC50

O=C(Nc1cccc(-c2nc(CO)sc2-c2ccnc(Nc3ccc(OCCN4CCCC4)c(F)c3)n2)c1)c1c(F)cccc1F [Example 126]; < 100 nM
CN(C)CCOc1ccc(Nc2nccc(-c3sc(N)nc3-c3ccc(F)c(NC(=O)c4c(F)cccc4F)c3)n2)cc1Cl [Example 67]; < 100 nM
CN1CCc2ccc(Nc3nccc(-c4sc(NCCCN5CCOCC5)nc4-c4cccc(NC(=O)c5c(F)cccc5F)c4)n3)cc2C1 [Example 31]; < 100 nM
CNc1nc(-c2cccc(NC(=O)c3c(F)cccc3F)c2)c(-c2ccnc(Nc3cccc(CN4CCCC4)c3)n2)s1 [Example 23]; < 100 nM
Cc1nc(-c2cccc(NC(=O)c3c(F)cccc3F)c2)c(-c2ccnc(Nc3cccc(CN4CCCC4)c3)n2)s1 [Example 104]; 100 to 1000 nM
CCNc1nc(-c2cccc(NC(=O)C3CC3)c2)c(-c2ccnc(Nc3ccc(OCCN4CCCC4)c(Cl)c3)n2)s1 [Example 63]; 100 to 1000 nM
Cc1nc(-c2cccc(NC(=O)c3c(F)cccc3F)c2)c(-c2ccnc(Nc3ccc(OC4CCN(C)CC4)c(F)c3)n2)s1 [Example 108]; 100 to 1000 nM

* * *

- System: Colo205 tumor cells
- Protocol Details: Method C: Cell Growth Inhibition Assay (CellTiter-Glo), Colo205
- Format: cell-based
- Reported Conditions: Homo sapiens, COLO 205, 72 h, 3 days, 4-parameter fit
pIC50: −log10 of the molar value. Counter-ions that a name gives are not always drawn.
Assay Metric: pIC50

CN(C)CCOc1ccc(Nc2nccc(-c3sc(-c4ccc(O)cc4)nc3-c3cccc(NC(=O)c4cc(F)ccc4F)c3)n2)cc1Cl; 6.00 to 7.00
CN1CCc2ccc(Nc3nccc(-c4sc(N)nc4-c4cccc(NC(=O)c5c(F)cccc5F)c4)n3)cc2C1 [Example 10, trifluoroacetate]; 6.00 to 7.00
Cc1nc(-c2cccc(NC(=O)c3c(F)cccc3F)c2)c(-c2ccnc(Nc3ccc(OC4CCN(C)CC4)c(F)c3)n2)s1; 6.00 to 7.00
CN(C)CCOc1ccc(Nc2nccc(-c3sc(N4CCCCC4)nc3-c3cccc(NC(=O)c4c(F)cccc4F)c3)n2)cc1Cl; < 6.00
O=C(Nc1cccc(-c2nc(NCCCN3CCOCC3)sc2-c2ccnc(Nc3cccc(CN4CCCC4)c3)n2)c1)c1c(F)cccc1F; 6.00 to 7.00
COc1cccc(C(=O)Nc2cccc(-c3nc(C)sc3-c3ccnc(Nc4ccc5c(c4)CN(C)CC5)n3)c2)c1 [Example 132, trifluoroacetate]; < 6.00
CN(C)CCOc1ccc(Nc2nccc(-c3sc(NS(=O)(=O)CC(F)(F)F)nc3-c3cccc(NC(=O)c4c(F)cccc4F)c3)n2)cc1; < 6.00
COc1ccc(Nc2nccc(-c3sc(N)nc3-c3cccc(NC(=O)c4c(F)cccc4F)c3)n2)cc1N1CCNCC1; < 6.00
CN(C)CCOc1ccc(Nc2nccc(-c3sc(N(C)C)nc3-c3cccc(NC(=O)c4c(F)cccc4F)c3)n2)cc1Cl; 6.00 to 7.00
CN(C)CCOc1ccc(Nc2nccc(-c3sc(N)nc3-c3cc(NC(=O)c4c(F)cccc4F)ccc3F)n2)cc1Cl; 6.00 to 7.00
Cc1nc(-c2cccc(NC(=O)c3c(F)cccc3F)c2)c(-c2ccnc(Nc3ccc(OCCN4CCCC4)c(Cl)c3)n2)s1; < 6.00
CN(C)CCOc1cccc(Nc2nccc(-c3sc(N)nc3-c3cccc(NC(=O)c4c(F)cccc4F)c3)n2)c1; 6.00 to 7.00
O=C(Nc1cccc(-c2nc(NC3CC3)sc2-c2ccnc(Nc3ccc(OCCN4CCCC4)c(F)c3)n2)c1)c1c(F)cccc1F; 6.00 to 7.00

* * *

Attribute: pIC50
- Target Desc: ErbB2 (Homo sapiens, UniProt P04626)
- Construct: made in house; host or cells: baculovirus expression system
- Sequence (P04626 23-1255): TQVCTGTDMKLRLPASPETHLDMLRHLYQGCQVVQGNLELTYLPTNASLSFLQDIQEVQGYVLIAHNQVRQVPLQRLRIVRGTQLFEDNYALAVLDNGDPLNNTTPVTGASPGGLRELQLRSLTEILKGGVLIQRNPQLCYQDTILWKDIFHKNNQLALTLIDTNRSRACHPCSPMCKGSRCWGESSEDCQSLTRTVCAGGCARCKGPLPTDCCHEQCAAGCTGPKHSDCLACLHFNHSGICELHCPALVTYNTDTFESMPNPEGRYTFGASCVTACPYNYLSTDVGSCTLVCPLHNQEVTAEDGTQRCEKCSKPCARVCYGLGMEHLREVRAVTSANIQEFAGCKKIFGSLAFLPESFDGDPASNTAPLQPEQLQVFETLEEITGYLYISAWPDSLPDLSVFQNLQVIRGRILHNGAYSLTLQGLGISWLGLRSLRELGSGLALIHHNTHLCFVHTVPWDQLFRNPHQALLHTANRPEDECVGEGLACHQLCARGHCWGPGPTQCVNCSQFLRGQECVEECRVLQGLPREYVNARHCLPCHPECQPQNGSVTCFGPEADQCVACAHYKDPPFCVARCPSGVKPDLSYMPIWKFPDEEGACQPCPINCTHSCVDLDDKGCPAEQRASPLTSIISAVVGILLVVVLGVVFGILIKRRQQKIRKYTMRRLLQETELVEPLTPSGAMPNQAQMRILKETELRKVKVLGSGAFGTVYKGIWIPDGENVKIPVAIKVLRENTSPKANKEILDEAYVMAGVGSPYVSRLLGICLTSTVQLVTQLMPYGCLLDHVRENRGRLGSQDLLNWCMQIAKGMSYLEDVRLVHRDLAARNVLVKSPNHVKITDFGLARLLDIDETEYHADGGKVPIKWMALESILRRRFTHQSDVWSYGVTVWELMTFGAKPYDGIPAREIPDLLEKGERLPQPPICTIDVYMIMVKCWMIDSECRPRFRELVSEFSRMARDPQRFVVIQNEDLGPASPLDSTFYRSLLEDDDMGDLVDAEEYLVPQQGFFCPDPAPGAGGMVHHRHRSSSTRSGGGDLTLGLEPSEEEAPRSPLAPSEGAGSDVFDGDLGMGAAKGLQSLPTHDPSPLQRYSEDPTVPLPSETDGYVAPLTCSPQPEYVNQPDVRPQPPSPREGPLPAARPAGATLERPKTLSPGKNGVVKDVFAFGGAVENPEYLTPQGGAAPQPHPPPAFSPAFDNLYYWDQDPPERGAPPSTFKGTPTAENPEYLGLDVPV
- Protocol Details: ErbB-2 substrate phosphorylation assay (HTRF)
- Type: biochemical
- Reported Conditions: Method (A): Enzyme Mix incubated with compound at 20° C. for 1 hr, reaction started by adding Substrate Mix
pIC50: −log10 of the molar value.
Assay Metric: pIC50

CCNc1nc(-c2cccc(NC(=O)C3CC3)c2)c(-c2ccnc(Nc3ccc(OCCN4CCCC4)c(Cl)c3)n2)s1; > 7.00
Cc1nc(-c2cccc(NC(=O)c3cccc(C(F)(F)F)c3)c2)c(-c2ccnc(Nc3ccc4c(c3)CN(C)CC4)n2)s1; > 7.00
CN(C)c1nc(-c2cccc(NC(=O)c3c(F)cccc3F)c2)c(-c2ccnc(Nc3ccc(OCCN4CCCC4)c(Cl)c3)n2)s1; > 7.00
CN(C)CCOc1ccc(Nc2nccc(-c3sc(N)nc3-c3cccc(NC(=O)c4c(F)cccc4F)c3)n2)cc1Cl; > 7.00

* * *

Attribute: IC50
- Target Desc: ErbB2 (Homo sapiens, UniProt P04626)
- Construct: made in house; host or cells: baculovirus expression system
- Protocol Details: ErbB-2 substrate phosphorylation assay (HTRF)
- Format: biochemical
- Reported Conditions: Method (A): Enzyme Mix incubated with compound at 20° C. for 1 hr, reaction started by adding Substrate Mix
- Description: Compounds of the present invention were tested for EGFR and ErbB-2 protein tyrosine kinase inhibitory activity in substrate phosphorylation assays using enzymes purified from a baculovirus expression system. […] After initiating the reaction with either method describe above, the reactions were allowed to proceed for 90 minutes at 20° C. […] Assay plates were left unsealed and were counted in a Wallac Multilabel Counter 1420 (PerkinElmer). […]
Where a name gives a salt, the structure may show the parent alone.
Assay Metric: IC50

CN1CCc2ccc(Nc3nccc(-c4sc(N5CCCC5)nc4-c4cccc(NC(=O)c5c(F)cccc5F)c4)n3)cc2C1 [Example 44]; < 100 nM
CN(C)C1Cc2ccc(Nc3nccc(-c4sc(N)nc4-c4cccc(NC(=O)c5c(F)cccc5F)c4)n3)cc2C1 (centres unmarked) [Example 12]; < 100 nM
Nc1nc(-c2cccc(NC(=O)c3cc(F)ccc3F)c2)c(-c2ccnc(Nc3ccc4c(c3)CNCC4)n2)s1 [Example 57]; < 100 nM
CN1CCc2ccc(Nc3nccc(-c4sc(CS(=O)(=O)C(C)(C)C)nc4-c4cccc(NC(=O)c5c(F)cccc5F)c4)n3)cc2C1 [Example 120]; < 100 nM
CN(C)CCOc1ccc(Nc2nccc(-c3sc(N)nc3-c3cccc(NC(=O)C4CCCCC4)c3)n2)cc1Cl [Example 61]; < 100 nM
CCN(CC)CCOc1cccc(Nc2nccc(-c3sc(N)nc3-c3cccc(NC(=O)c4c(F)cccc4F)c3)n2)c1 [Example 17]; < 100 nM
CCNc1nc(-c2cccc(NC(=O)c3c(F)cccc3F)c2)c(-c2ccnc(Nc3ccc(OCCN(C)C)c(Cl)c3)n2)s1 [Example 25]; < 100 nM
COc1ccc(Nc2nccc(-c3sc(NCCN4CCOCC4)nc3-c3cccc(NC(=O)c4cc(F)ccc4F)c3)n2)cc1F [Example 53]; < 100 nM
CN(C)CCOc1cccc(Nc2nccc(-c3scnc3-c3cccc(NC(=O)Cc4cccs4)c3)n2)c1 [Example 84]; < 100 nM
COCCOc1ccc(Nc2nccc(-c3sc(N)nc3-c3cccc(NC(=O)c4c(F)cccc4F)c3)n2)cc1F [Example 3]; < 100 nM
CN1CCc2ccc(Nc3nccc(-c4sc(NCCCN5CCOCC5)nc4-c4cccc(NC(=O)c5c(F)cccc5F)c4)n3)cc2C1 [Example 31]; < 100 nM
CC(C)c1nc(-c2cccc(NC(=O)c3c(F)cccc3F)c2)c(-c2ccnc(Nc3ccc(OCCN4CCCC4)c(Cl)c3)n2)s1 [Example 121]; < 100 nM
NS(=O)(=O)CCc1cccc(Nc2nccc(-c3scnc3-c3cccc(NC(=O)c4cc(F)ccc4F)c3)n2)c1 [Example 100, trifluoroacetate]; < 100 nM
Cc1nc(-c2cccc(NC(=O)c3c(F)cccc3F)c2)c(-c2ccnc(Nc3ccc(OCCN4CCCC4)c(Cl)c3)n2)s1 [Example 110]; < 100 nM
